- System: tumor necrosis factor (α) (TNF-α)
- assayOverview: Cytokine induction in human cells: TNF-α secreted by PBMC into culture media (ORIGEN M-Series immunoassay)
- Type: cell-based
- setupConditions: Table 12; human PBMC; median; * = below the experimental background of 40 pg/mL
molecules and their reported Maximal Response TNF
// return numeric value only (unit: pg/mL, not printed)

In the examples that follow, each entry is paired with its recorded Maximal Response TNF.
CCOCc1nc2c(N)nc3cccnc3c2n1CC(C)(C)O | 7275
CC(C)Cn1c(CO)nc2c(N)nc3cccnc3c21 | 363
CCc1nc2c(N)nc3cccnc3c2n1CC(C)(C)O | 3863
CC(C)(F)Cn1c(CCO)nc2c(N)nc3cccnc3c21 | 84
Cc1nc2c(N)nc3cccnc3c2n1CC(C)C | 699
CCOCc1nc2c(N)nc3cccnc3c2n1CC(C)(C)NC(=O)C1CCCCC1 | 8691

Reported Maximal Response TNF for CC(C)(F)Cn1c(CO)nc2c(N)nc3cccnc3c21 was 1922

Reported Maximal Response TNF for CS(=O)(=O)NCCCCn1c(CCO)nc2c(N)nc3cccnc3c21 was 7

Reported Maximal Response TNF for CC(C)(O)Cn1c(CCO)nc2c(N)nc3cccnc3c21 was 331

Reported Maximal Response TNF for CC(C)(O)Cn1c(CO)nc2c(N)nc3cccnc3c21 was 1316
